# procedure_summary: log P by HPLC (EEC Directive 79/831 Annex V.A8)
# Format: physicochemical
# condition_description: [a] HPLC, acidic range, pH 2.3, 0.1% aqueous phosphoric acid and acetonitrile
Listed here are compounds together with their documented log P.
Form field (numeric): enter value without unit.

O=C(Oc1cccc2c1CCCC2)c1cccc(N2CCN(C(=O)Cn3nc(C(F)F)cc3C(F)F)CC2)n1 [Example 139] = 4.25
CCCCCCCSC(=O)c1cccc(C2CCN(C(=O)Cn3nc(C(F)F)cc3C(F)F)CC2)n1 [Example 129] = 5.43
O=C(OC1CCCCC1)c1cccc(N2CCN(C(=O)Cn3nc(C(F)F)cc3C(F)F)CC2)n1 [Example 119] = 4.61
O=C(Sc1cccc2ccccc12)c1cccc(C2CCN(C(=O)Cn3nc(C(F)F)cc3C(F)F)CC2)n1 [Example 114] = 4.4
O=C(OC1CCCCC1)c1cccc(N2CCN(C(=O)Cn3nc(C(F)F)cc3C(F)F)CC2)n1 [Example 140] = 3.83
O=C(Sc1ccccc1)c1cccc(N2CCN(C(=O)Cn3nc(C(F)F)cc3C(F)F)CC2)n1 [Example 122] = 3.79

Form field: reported log P of CN(Cc1ccccc1Cl)C(=O)c1cccc(N2CCN(C(=O)Cn3nc(C(F)F)cc3C(F)F)CC2)n1 [Example 148] 3.22

Try this compound too: CN(C(=O)c1cccc(N2CCN(C(=O)Cn3nc(C(F)F)cc3C(F)F)CC2)n1)C1CCCc2ccccc21 (stereo not shown) [Example 143] 3.42

Try this compound too: O=C(Sc1ccccc1)c1cccc(C2CCN(C(=O)Cn3nc(C(F)F)cc3C(F)F)CC2)n1 [Example 121] 3.8

Try this compound too: O=C(NCc1ccc(Cl)cc1Cl)c1cccc(N2CCN(C(=O)Cn3nc(C(F)F)cc3C(F)F)CC2)n1 [Example 144] 3.68

Try this compound too: CCCCCCCSC(=O)c1cccc(N2CCN(C(=O)Cn3nc(C(F)F)cc3C(F)F)CC2)n1 [Example 130] 5.4
